- assay_target: GST-JNK1 (UniProt P45983 1-427)
- Sequence (P45983 whole entry): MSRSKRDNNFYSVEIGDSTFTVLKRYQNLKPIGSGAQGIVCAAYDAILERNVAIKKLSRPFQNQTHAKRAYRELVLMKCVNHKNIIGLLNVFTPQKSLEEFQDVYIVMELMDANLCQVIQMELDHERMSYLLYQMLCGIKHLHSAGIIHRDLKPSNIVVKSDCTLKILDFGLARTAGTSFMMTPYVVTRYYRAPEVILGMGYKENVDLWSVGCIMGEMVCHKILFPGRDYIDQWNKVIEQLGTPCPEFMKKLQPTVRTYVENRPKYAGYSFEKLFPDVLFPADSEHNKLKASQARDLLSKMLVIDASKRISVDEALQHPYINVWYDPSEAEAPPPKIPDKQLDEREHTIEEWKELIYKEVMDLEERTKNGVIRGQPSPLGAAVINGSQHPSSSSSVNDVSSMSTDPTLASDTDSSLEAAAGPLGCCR
- experiment_summary: DELFIA
endpoint: IC50 (µM)
Enter your answer as a number in µM; do not include the unit.

Recorded IC50 for Ac-RPTTLNL-OH [10 (Ac-RPTTLNL-OH)] , please?
4.5
